Literature survey of pKi (system: Adenosine receptor A2a (Rattus norvegicus)).
pKi: −log10 of the molar value.
met means recorded pKi is 6 or above; not met means it is below 6.

Here are 5 compounds together with their reported answers.
> print(dat)
                                   compound  class.label
1  CCOC(=O)C1=C(c2ccccc2)N=C(C)/C(=C(/O)OCC)C1c1ccncc1 (stereo not given)      not met
2  CCCn1c(=O)[nH]c2nc(-c3ccc(OCC(=O)NCCCCC4=C5C(C)=CC(C)=[N+]5[B-](F)(F)n5c(C)cc(C)c54)cc3)[nH]c2c1=O      not met
3  Cn1c(=O)c2c(nc3n2CCN(CC(O)c2ccccc2)C3)n(C)c1=O (stereo not given)      not met
4  Nc1nc(C#CC(O)c2ccccc2)cn2nc(-c3ccco3)nc12 (stereo not given)          met
5  NC(=O)c1cccc(-c2cn3nc(-c4ccco4)nc3c(N)n2)c1          met

Lab note: next compound to report on.
query: Check if pKi >= 6 (inclusive). Item: Nc1nc(NC[C@H]2CCCN2Cc2c(Cl)cncc2Cl)nc2nc(-c3ccco3)nn12
result: met

* * *

Literature survey of pKi (system: Adenosine receptor A2a (Rattus norvegicus, UniProt P30543)).
Sequence (P30543 whole entry): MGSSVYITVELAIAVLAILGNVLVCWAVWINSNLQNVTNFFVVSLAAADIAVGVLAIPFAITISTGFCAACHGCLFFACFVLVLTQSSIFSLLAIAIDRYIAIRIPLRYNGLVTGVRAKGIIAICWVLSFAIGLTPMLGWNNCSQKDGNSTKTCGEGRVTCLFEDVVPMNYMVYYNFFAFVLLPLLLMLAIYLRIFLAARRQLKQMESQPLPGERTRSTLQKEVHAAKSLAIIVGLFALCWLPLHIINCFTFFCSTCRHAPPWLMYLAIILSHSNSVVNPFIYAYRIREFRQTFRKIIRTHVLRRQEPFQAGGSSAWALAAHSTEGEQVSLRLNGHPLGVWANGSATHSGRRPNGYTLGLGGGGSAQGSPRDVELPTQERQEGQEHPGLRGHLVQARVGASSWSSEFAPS
Please report pKi as the negative decimal logarithm of the molar concentration, giving only the number.

query: Report pKi for Nc1nc(OCCCc2ccccc2)nc2c1ncn2[C@@H]1O[C@H](CO)[C@@H](O)[C@H]1O tested on Adenosine receptor A2a (Rattus norvegicus, UniProt P30543).
result: 5.92

query: Report pKi for Cc1ccc(-c2cc3nc(-c4ccco4)nn3c(N)n2)cc1 tested on Adenosine receptor A2a (Rattus norvegicus, UniProt P30543).
result: 8.08

query: Report pKi for Cn1c(=O)c2c(nc(C(F)(F)F)n2C)n(C)c1=O tested on Adenosine receptor A2a (Rattus norvegicus, UniProt P30543).
result: 4.54

query: Report pKi for CCCCn1c(=O)c2c(nc3n2CCCN3c2ccc(O)cc2)n(CCCC)c1=O tested on Adenosine receptor A2a (Rattus norvegicus, UniProt P30543).
result: 6.13

query: Report pKi for O=C(CCCCc1ccccc1)N[C@H]1C(CO)O[C@@H](n2cnc3c(NC4CCCC4)ncnc32)[C@@H]1O (single isomer, unassigned) tested on Adenosine receptor A2a (Rattus norvegicus, UniProt P30543).
result: 5.37

query: Report pKi for Cc1ccc(NC(=O)Nc2nc(Oc3ccccc3)nc3nc(-c4ccco4)nn23)cc1 tested on Adenosine receptor A2a (Rattus norvegicus, UniProt P30543).
result: 6.67

query: Report pKi for CC(O)(C#Cc1cn2nc(-c3ccco3)nc2c(N)n1)c1ccc(O)cc1 (stereo unspecified) tested on Adenosine receptor A2a (Rattus norvegicus, UniProt P30543).
result: 7.38

query: Report pKi for Cn1c(=O)c2c(nc3n2CCN(CCc2cccs2)C3)n(C)c1=O tested on Adenosine receptor A2a (Rattus norvegicus, UniProt P30543).
result: 5.80

query: Report pKi for Cn1c(=O)c2c(nc3n2CCCN3Cc2ccco2)n(C)c1=O tested on Adenosine receptor A2a (Rattus norvegicus, UniProt P30543).
result: 5.48

query: Report pKi for Cc1cc(C)n(-c2cc(NC(=O)CN3CCOCC3)nc(-c3ccc(C)o3)n2)n1 tested on Adenosine receptor A2a (Rattus norvegicus, UniProt P30543).
result: 6.37

query: Report pKi for CN1C(=O)N2CCCN=C2c2c1ncn2C tested on Adenosine receptor A2a (Rattus norvegicus, UniProt P30543).
result: 4.55

query: Report pKi for Cc1cc(CN2CCCC(CNc3nc(N)n4nc(-c5ccco5)nc4n3)C2)no1 (stereo unspecified) tested on Adenosine receptor A2a (Rattus norvegicus, UniProt P30543).
result: 6.82

query: Report pKi for Cn1cc(CN2CCN(c3nc(N)n4nc(-c5ccco5)nc4n3)CC2)c(Cl)n1 tested on Adenosine receptor A2a (Rattus norvegicus, UniProt P30543).
result: 7.24

query: Report pKi for Cc1ccc(OCCN2CCCn3c2nc2c3c(=O)n(C)c(=O)n2C)cc1 tested on Adenosine receptor A2a (Rattus norvegicus, UniProt P30543).
result: 5.34

query: Report pKi for Cc1cc(C)n(-c2cc(NC(=O)COc3cccc(CN(C)C)c3)nc(-c3ccc(C)o3)n2)n1 tested on Adenosine receptor A2a (Rattus norvegicus, UniProt P30543).
result: 8.03

query: Report pKi for Nc1nc(NC[C@H]2CCCN2Cc2c(F)ccc(F)c2Cl)nc2nc(-c3ccco3)nn12 tested on Adenosine receptor A2a (Rattus norvegicus, UniProt P30543).
result: 8.40

query: Report pKi for CCCN(CCC)S(=O)(=O)c1ccc(-c2nc3[nH]c(=O)n(CCC)c(=O)c3[nH]2)cc1 tested on Adenosine receptor A2a (Rattus norvegicus, UniProt P30543).
result: 7.38

query: Report pKi for CC[C@H]1CN2C(=O)N(C)c3nc(-c4ccccc4)n(C)c3C2=N1 tested on Adenosine receptor A2a (Rattus norvegicus, UniProt P30543).
result: 4.79
